- Measurement target: C-C chemokine receptor type 1 (Homo sapiens)
- Sequence (P32246 whole entry): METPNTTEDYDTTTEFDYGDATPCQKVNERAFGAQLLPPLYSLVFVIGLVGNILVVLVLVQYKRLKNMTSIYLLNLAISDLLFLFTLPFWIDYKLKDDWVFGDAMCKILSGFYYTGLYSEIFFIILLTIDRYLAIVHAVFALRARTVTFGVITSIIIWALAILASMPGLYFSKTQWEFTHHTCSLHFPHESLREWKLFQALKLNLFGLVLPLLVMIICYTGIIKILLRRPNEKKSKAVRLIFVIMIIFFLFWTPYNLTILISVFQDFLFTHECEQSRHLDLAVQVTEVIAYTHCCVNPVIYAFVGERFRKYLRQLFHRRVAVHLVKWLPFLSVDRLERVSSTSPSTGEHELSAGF
- Method description: Inhibitory activity against human Chemokine receptor type 1 expressed in chinese hamster ovary cells

| Compound | Measurement target | IC50 |
| --- | --- | --- |
| N#CC(CCCN1CCN(Cc2ccccc2)CC1)(c1ccccc1)c1ccccc1 | C-C chemokine receptor type 1 (Homo sapiens) | > 50000 nM |
| COc1cccc(NC(=O)Nc2ccccc2CCN2CCC(Cc3ccccc3)CC2)c1 | C-C chemokine receptor type 1 (Homo sapiens) | > 10000 nM |
| O=C(NCCc1ccc(F)cc1)NCC(CCCN1CCC(O)(c2ccc(Cl)cc2)CC1)(c1ccccc1)c1ccccc1 | C-C chemokine receptor type 1 (Homo sapiens) | 295 nM |
| O=C(NCCCCO)NCC(CCCN1CCC(O)(c2ccc(Cl)cc2)CC1)(c1ccccc1)c1ccccc1 | C-C chemokine receptor type 1 (Homo sapiens) | 240 nM |
| CNC(=O)NCC(CCCN1CCC(O)(c2ccc(Cl)cc2)CC1)(c1ccccc1)c1ccccc1 | C-C chemokine receptor type 1 (Homo sapiens) | < 780 nM |
| O=C(Nc1cc(F)ccc1F)Nc1ccccc1C(O)CN1CCC(Cc2ccccc2)CC1 (stereo unspecified) | C-C chemokine receptor type 1 (Homo sapiens) | > 10000 nM |
| COc1ccc(NC(=O)Nc2ccccc2CN2CCC(Cc3ccccc3)CC2)cc1 | C-C chemokine receptor type 1 (Homo sapiens) | > 10000 nM |
| O=C(Nc1ccccc1CN1CCC(Cc2ccccc2)CC1)NC1CCN(Cc2ccccc2)CC1 | C-C chemokine receptor type 1 (Homo sapiens) | > 50000 nM |
| CN(C)CCNC(=O)NCC(CCCN1CCC(O)(c2ccc(Cl)cc2)CC1)(c1ccccc1)c1ccccc1 | C-C chemokine receptor type 1 (Homo sapiens) | 67 nM |
| N#Cc1cccc(NC(=O)Nc2ccccc2CN2CCC(Cc3ccccc3)CC2)c1 | C-C chemokine receptor type 1 (Homo sapiens) | > 10000 nM |
| N#CC(CCCN1CCC(O)(c2ccc(Cl)cc2)CC1)(c1ccccc1)c1ccccc1 | C-C chemokine receptor type 1 (Homo sapiens) | 630 nM |
| O=C(NCC(CCCN1CCC(O)(c2ccc(Cl)cc2)CC1)(c1ccccc1)c1ccccc1)Nc1cccc(C(F)(F)F)c1 | C-C chemokine receptor type 1 (Homo sapiens) | 1410 nM |
| N#Cc1cccc(NC(=O)Nc2ccccc2C(O)CN2CCC(Cc3ccccc3)CC2)c1 (stereo unspecified) | C-C chemokine receptor type 1 (Homo sapiens) | > 10000 nM |
| O=C(Nc1ccccc1)Nc1ccccc1CN1CCC(Cc2ccccc2)CC1 | C-C chemokine receptor type 1 (Homo sapiens) | > 10000 nM |
| COC(=O)N1CCC(NC(=O)NCC(CCCN2CCC(O)(c3ccc(Cl)cc3)CC2)(c2ccccc2)c2ccccc2)CC1 | C-C chemokine receptor type 1 (Homo sapiens) | 500 nM |
| O=C(NCCCO)Nc1ccccc1CN1CCC(Cc2ccccc2)CC1 | C-C chemokine receptor type 1 (Homo sapiens) | > 10000 nM |
| O=C(NCc1ccccc1)Nc1ccccc1CN1CCC(Cc2ccccc2)CC1 | C-C chemokine receptor type 1 (Homo sapiens) | > 10000 nM |
| c1ccc(CCN2CCC(Cc3ccccc3)CC2)cc1 | C-C chemokine receptor type 1 (Homo sapiens) | > 50000 nM |
| CC(C)(C)NC(=O)NCC(CCCN1CCC(O)(c2ccc(Cl)cc2)CC1)(c1ccccc1)c1ccccc1 | C-C chemokine receptor type 1 (Homo sapiens) | 71 nM |
| O=C(NCc1ccccc1)NCC(CCCN1CCC(O)(c2ccc(Cl)cc2)CC1)(c1ccccc1)c1ccccc1 | C-C chemokine receptor type 1 (Homo sapiens) | < 780 nM |
| O=C(Nc1ccc2c[nH]nc2c1)Nc1ccccc1CN1CCC(Cc2ccccc2)CC1 | C-C chemokine receptor type 1 (Homo sapiens) | > 10000 nM |
| NCC(CCCN1CCC(O)(c2ccc(Cl)cc2)CC1)(c1ccccc1)c1ccccc1 | C-C chemokine receptor type 1 (Homo sapiens) | 760 nM |
| O=C(Nc1ccc2[nH]ncc2c1)Nc1ccccc1CN1CCC(Cc2ccccc2)CC1 | C-C chemokine receptor type 1 (Homo sapiens) | > 10000 nM |
| O=C(NCCN1CCCCC1)Nc1ccccc1CN1CCC(Cc2ccccc2)CC1 | C-C chemokine receptor type 1 (Homo sapiens) | > 50000 nM |
| O=C(NCCCO)NCC(CCCN1CCC(O)(c2ccc(Cl)cc2)CC1)(c1ccccc1)c1ccccc1 | C-C chemokine receptor type 1 (Homo sapiens) | 31 nM |
| N#CC(CCCN1CCC(Cc2ccccc2)CC1)(c1ccccc1)c1ccccc1 | C-C chemokine receptor type 1 (Homo sapiens) | > 50000 nM |
| COc1cccc(NC(=O)Nc2ccccc2C(O)CN2CCC(Cc3ccccc3)CC2)c1 (stereo unspecified) | C-C chemokine receptor type 1 (Homo sapiens) | > 10000 nM |
| COc1ccc(NC(=O)NCC(CCCN2CCC(O)(c3ccc(Cl)cc3)CC2)(c2ccccc2)c2ccccc2)cc1 | C-C chemokine receptor type 1 (Homo sapiens) | 780 nM |
| O=C(NCCN1CCCCC1)NCC(CCCN1CCC(O)(c2ccc(Cl)cc2)CC1)(c1ccccc1)c1ccccc1 | C-C chemokine receptor type 1 (Homo sapiens) | 360 nM |
| N#Cc1cccc(NC(=O)Nc2ccccc2CCN2CCC(Cc3ccccc3)CC2)c1 | C-C chemokine receptor type 1 (Homo sapiens) | > 10000 nM |
| c1ccc(CC2CCN(Cc3ccccc3)CC2)cc1 | C-C chemokine receptor type 1 (Homo sapiens) | > 50000 nM |
| COc1cccc(NC(=O)Nc2ccccc2CN2CCC(Cc3ccccc3)CC2)c1 | C-C chemokine receptor type 1 (Homo sapiens) | > 10000 nM |
| O=C(NCC(CCCN1CCC(O)(c2ccc(Cl)cc2)CC1)(c1ccccc1)c1ccccc1)Nc1cc(F)ccc1F | C-C chemokine receptor type 1 (Homo sapiens) | 1340 nM |
| O=C(NCC1CCCCC1)NCC(CCCN1CCC(O)(c2ccc(Cl)cc2)CC1)(c1ccccc1)c1ccccc1 | C-C chemokine receptor type 1 (Homo sapiens) | 125 nM |
| O=C(Nc1cc(F)ccc1F)Nc1ccccc1CN1CCC(Cc2ccccc2)CC1 | C-C chemokine receptor type 1 (Homo sapiens) | > 50000 nM |
| O=C(NCC(CCCN1CCC(O)(c2ccc(Cl)cc2)CC1)(c1ccccc1)c1ccccc1)NC1CCN(Cc2ccccc2)CC1 | C-C chemokine receptor type 1 (Homo sapiens) | 310 nM |
